Answer each item with its documented growth.
# Tested on: SK-MEL-28 melanoma
# Measurement Description: NCI-60 one-dose screen, 48 h (100 = growth as untreated, 0 = no growth, -100 = all killed)
# Condition Notes: 10 µM unless noted
The panel holds about 83,000 compounds, 20% with a hit somewhere; the sample as a whole holds those more often.
Numbers only, in %.

# example entries with known answers
Compound | U | growth
O=C(N=Nc1c(O)[nH]c2ccccc12)Nc1ccc(Cl)cc1 | % | 91.5
FC(F)(F)c1[nH]ncc1-c1nc2c(N3CCCCC3)cc3[nH]ncc3c2c2c1CCCC2 | % | -6.99
Cc1ccc(-c2nc(C#N)c(S(=O)(=O)NCCO)o2)cc1 | % | 70.7

Batch request: growth per item, same order as input.
1. COc1ccc(NC(=O)c2sc3nc(C)c(C(O)c4ccccc4)cc3c2N)cc1 (stereo not given)
2. CCc1ccc(CCC(=O)Nc2ncc(Cc3ccc(Cl)cc3)s2)o1
3. O[C@@H](c1cc(C(F)(F)F)nc2c(C(F)(F)F)cccc12)[C@H]1CCCCN1
4. CC(=O)Nc1c(Cl)cc(Cl)c2c1Cc1cc([N+](=O)[O-])ccc1-2
5. N#Cc1c(-c2ccccc2)nc2c(c(-c3ccccc3)nn2-c2ccccc2)c1-c1ccc(N2CCOCC2)cc1
6. C=CC1(C)C(O[Si](C)(C)C(C)(C)C)CC2C3OC(=O)NC31c1cccc3c1[C@H](C(=O)N3C)C2(C)C (stereo not given in full)
7. COc1cc(-c2nc(NC(C)=O)sc2-c2ccnc(NCCNS(=O)(=O)c3ccccc3)n2)ccc1Cl
8. COc1ccc(Cn2cc(C(=O)N=Nc3c(O)[nH]c4c(Cl)cccc34)nn2)cc1

[57, 66.3, 98.3, 100, 107, 63.7, 35.6, 115]

###

# Test system: CAKI-1 renal
# Measurement Description: NCI-60 one-dose screen, 48 h
# Condition Notes: 10 µM unless noted
About 83,000 compounds went through this panel and 20% of them were active in at least one assay; those are over-represented in the sample as a whole. Active and inactive are the calls of the source. How the source made its calls: active means growth percent below 10; inactive means the rest.
Write down one outcome, taken from Yes (active), No (inactive)

Compound | Group Label
Cn1cc(-c2csc(-c3cn(C(=O)OC(C)(C)C)c4ccccc34)n2)c2ccnc(Cl)c21 | No

Consider the record given below.
Test call, this compound: C=CCCC(=O)N1C=CC(=O)[C@H](O)[C@@H]1/C=C/c1ccccc1
No

###

# Test system: T-47D breast
# Measurement Description: NCI-60 one-dose screen, 48 h
# Condition Notes: 10 µM unless noted
This is part of a sample that, as a whole, favours compounds with a hit. Of some 83,000 tested, about 20% had one in any assay. Active and inactive are the calls of the source. Rule for the calls: active = growth percent below 10; inactive = the rest.
Write down one outcome, taken from active, inactive

A selection of reference data follows.
Compound | Group Label
O=C(Nc1ccccc1O)c1ccccc1Nc1ccnc(C(F)(F)F)c1 | inactive
O=C1NC(=C(Cl)Cl)/C(=N/S(=O)(=O)NCCc2c[nH]c3ccccc23)N1 | inactive
CC(=O)Nc1c(Cl)cc(Cl)c2c1Cc1cc([N+](=O)[O-])ccc1-2 | inactive
CC(C)c1ccc(NC(=O)Nc2ccc(NC(=O)c3ccccc3N)cc2)cc1 | inactive
O=C(O)c1cn(C2CC2)c2cc(N3CCN(C(=O)N/N=C/c4ccccc4)CC3)c(F)cc2c1=O | inactive

Test call, this compound: CC(/C=C1\SC(=S)N(CC(=O)NC(Cc2c[nH]c3ccccc23)C(=O)O)C1=O)=C\c1ccccc1 (stereo not given)
inactive

What about this compound? COC(=O)C1=Nc2ccc(F)cc2/C1=C\c1sc(Nc2ccc(O)cc2)nc1O
inactive
